Origin of measurements: PubChem BioAssay (NCI)

# Tested on: HL-60(TB) leukemia
# PROTOCOL DESCRIPTION: NCI tumour cell line growth inhibition, 48 h; in the data active = GI50 below about 0.43 µM; inactive = the rest
Outcome codes: true = active, false = inactive

MOLECULE	CAT
Cc1cc2c(F)c(Oc3ncnn4cc(OC[C@@H](C)OC(=O)[C@H](C)N)c(C)c34)ccc2[nH]1	false
S=C(Nc1ccc(Cl)cc1)Nc1ccc(Cl)cc1 (tested in a mixture with another compound)	false
O=C(NOCC1CC1)c1ccc(F)c(F)c1Nc1ccc(I)cc1Cl	true
CC[N+](CC)(CC)CCCn1c2c(c3ccccc3c1=O)C(=O)c1ccccc1-2	false
Fc1ccc(-c2ccc(-c3nnc(-c4cc(F)c(Cl)cc4Cl)o3)o2)cc1Cl	false
O=C1c2ccccc2-c2c1c1ccccc1c(=O)n2CCNCCNCCn1c2c(c3ccccc3c1=O)C(=O)c1ccccc1-2	false
CCN(CC)CCCCCCCNc1c2ccc(Cl)cc2nc2ccc(OC)cc12	false
S=C(N/N=C/c1ccccn1)Nc1ccccn1	true
CCOC(=O)Oc1c(OC)cc(C(=O)O[C@@H]2C[C@@H]3CN4CCc5c([nH]c6cc(OC)ccc56)[C@H]4C[C@@H]3[C@H](C(=O)OC)[C@H]2OC)cc1OC	false
C=C1C(=O)O[C@H]2[C@H]1CC/C(Cn1cc(-c3ccccc3)nn1)=C\CC[C@@]1(C)O[C@@H]21	false
Oc1cc2cccc[n+]2c2cccc(Cl)c12	false
C[C@H]1CCC/C=C/[C@@H]2C[C@H](O)C[C@H]2[C@H](O)[C@@H](S(=O)CCN(C)C)CC(=O)O1 (stereo partly drawn)	true
O=C1c2ccccc2-c2c1c1ccccc1c(=O)n2CCCN1CCOCC1	false
